Target: T1, human Nectin-4 (human, UniProt Q96NY8 32-510)
T1 sequence (looked up): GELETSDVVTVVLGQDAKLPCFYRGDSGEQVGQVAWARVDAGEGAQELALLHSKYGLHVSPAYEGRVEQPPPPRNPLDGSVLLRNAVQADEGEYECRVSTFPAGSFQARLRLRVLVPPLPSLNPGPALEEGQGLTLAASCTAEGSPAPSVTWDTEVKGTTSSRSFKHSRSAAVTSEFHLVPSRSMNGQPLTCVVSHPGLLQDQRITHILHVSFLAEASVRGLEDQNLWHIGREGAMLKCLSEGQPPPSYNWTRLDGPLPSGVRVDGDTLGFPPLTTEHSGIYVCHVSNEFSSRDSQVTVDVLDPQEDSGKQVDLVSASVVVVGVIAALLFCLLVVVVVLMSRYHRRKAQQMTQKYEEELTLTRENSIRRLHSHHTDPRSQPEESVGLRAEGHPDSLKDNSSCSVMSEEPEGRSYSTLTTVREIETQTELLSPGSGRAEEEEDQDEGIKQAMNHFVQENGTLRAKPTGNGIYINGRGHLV
Assay: cell-based or functional assay
MEASURE: EC50 (ng/ml), inhibition of proliferation of BT474 cells
I'd appreciate it if you wrote the number followed by its unit.

# return recorded EC50 (ng/ml), inhibition of proliferation of BT474 cells for entry 42D20 hz64-E (antibody, V domains shown, vcMMAE conjugated to the TECP-reduced antibody; residues not stated; DAR 4.0±1) VH: QVQLQESGPGLVKPSETLSLTCTVSGFSLIDYGVSWIRQPPGKGLEWIGVIWGGGKIYYNSVLKSRVTISKDNSKSQVSLKLSSVTAADTAVYYCAKQGGLLFYAMDYWGQGTLVTVSS VL: DIVMTQSPDSLAVSLGERATINCKSSQSLLNKYSQKNYLAWYQQKPGQPPKLLIYFASTRESGVPDRFSGSGSGTDFTLTISSLQAEDVAVYYCQQHYNTPFTFGAGTKLELKR 4.58 ng/mL

Attention now shifts to the item below.
# return recorded EC50 (ng/ml), inhibition of proliferation of BT474 cells for entry 42D20 hz44-E (antibody, V domains shown, vcMMAE conjugated to the TECP-reduced antibody; residues not stated; DAR 4.0±1) VH: QVQLQESGPGLVKPSETLSLTCTVSGFSLIDYGVSWIRQPPGKGLEWIGVIWGDAKIYYNSVLKSRVTISKDNSKSQVSLKLSSVTAADTAVYYCAKQGGLLFYAMDYWGQGTLVTVSS VL: DIVMTQSPDSLAVSLGERATINCKSSQSLLNKYSQKNYLAWYQQKPGQPPKLLIYFASTRESGVPDRFSGSGSGTDFTLTISSLQAEDVAVYYCQQHYNTPFTFGAGTKLELKR 3.61 ng/mL
